# System: bacterial inoculum
# method: Thermal stability: in vitro lytic assay after 30 min heating
# Assay type: cell-based
# test.conditions: 30 minutes at 45° C.
# Method: Thermal stability was assessed by incubating the lysin polypeptides at a fixed concentration of 128 μg/mL in Tris buffer pH 8.0 for 30 minutes at various elevated temperatures (within the range of about 30° C. to 60° C.) prior to assessing activity. […] The loss of optical density was followed for 15 minute at room temperature, and the specific activity was determined based on the enzyme concentration enabling a 50% loss of optical density at 15 minutes. […]
value.kind: % of CF-301 wild-type, 45° C.

| molecule | value.observed |
| --- | --- |
| pp65: Modified PlySs2 lysin, SEQ ID NO: 5: L92W, V104S, V128T, Y137S, S198Q, V204A, V212A; +246K (protein) MTTVNEALNNVRAQVGSGVSVGNGECYALASWYERMISPDATVGLGAGVGWVSGAIGDTISAKNIGSSYNWQANGWTVSTSGPFKAGQIVTWGATPGNPYGHVSIVEAVDGDRLTILEQNYGGKRYPTRNYYSAASSRQQVVHYITPPGTVAQSAPNLAGSRSYRETGTMTVTVDALNVRRAPNTSGEIVAVYKRGEQFDYDTAIIDVNGYAWVSYIGGSGKRNYVATGATKDGKRFGNAWGTFK | 82.1% |
| pp55: Modified PlySs2 lysin, SEQ ID NO: 3: L92W, V104S, V128T, Y137S; extra C-terminal lysine (+246K) (protein) MTTVNEALNNVRAQVGSGVSVGNGECYALASWYERMISPDATVGLGAGVGWVSGAIGDTISAKNIGSSYNWQANGWTVSTSGPFKAGQIVTWGATPGNPYGHVSIVEAVDGDRLTILEQNYGGKRYPTRNYYSAASSRQQVVHYITPPGTVAQSAPNLAGSRSYRETGTMTVTVDALNVRRAPNTSGEIVAVYKRGESFDYDTVIIDVNGYVWVSYIGGSGKRNYVATGATKDGKRFGNAWGTFK | 82.0% |
| pp296: Modified PlySs2 lysin, SEQ ID NO: 6: L92W, V104S, V128T, Y137S, Y164K, N184D, S198Q (protein) MTTVNEALNNVRAQVGSGVSVGNGECYALASWYERMISPDATVGLGAGVGWVSGAIGDTISAKNIGSSYNWQANGWTVSTSGPFKAGQIVTWGATPGNPYGHVSIVEAVDGDRLTILEQNYGGKRYPTRNYYSAASSRQQVVHYITPPGTVAQSAPNLAGSRSKRETGTMTVTVDALNVRRAPDTSGEIVAVYKRGEQFDYDTAIIDVNGYAWVSYIGGSGKRNYVATGATKDGKRFGNAWGTFK | 40.1% |
| pp61: Modified PlySs2 lysin, SEQ ID NO: 4: L92W, V104S, V128T, Y137S, S198H, I206E; +246K (protein) MTTVNEALNNVRAQVGSGVSVGNGECYALASWYERMISPDATVGLGAGVGWVSGAIGDTISAKNIGSSYNWQANGWTVSTSGPFKAGQIVTWGATPGNPYGHVSIVEAVDGDRLTILEQNYGGKRYPTRNYYSAASSRQQVVHYITPPGTVAQSAPNLAGSRSYRETGTMTVTVDALNVRRAPNTSGEIVAVYKRGEHFDYDTVIEDVNGYVWVSYIGGSGKRNYVATGATKDGKRFGNAWGTFK | 80.0% |
